- Assay name: Cmax in mouse at 10 mg/kg, po administered as single dose by LC-MS/MS analysis
- Assay type: ADME, organism-based
- Design: dose 10 mg/kg, route oral
- Measurement conditions: in vivo
Readout label: Cmax (ng/mL)
Report the figure in ng/mL without appending any unit label.

Input line: Quick one: Cmax of `CN(C/C=C/c1ccc(-c2ccccc2)cc1)Cc1coc2ccccc12.Cl` ?
Output line: 801

----------
- Assay name: Half life in Sprague-Dawley rat at 10 mg/kg, po administered as single dose by LC-MS/MS analysis
- Format: ADME, organism-based
- Measurement conditions: in vivo
Readout label: half-life (h)
Report the figure in h without appending any unit label.

Input line: Quick one: half-life of `CN(C/C=C/c1ccc(-c2ccccc2)cc1)Cc1coc2ccccc12.Cl` ?
Output line: 1.29
